Biological target: Human immunodeficiency virus type 1 reverse transcriptase (Human immunodeficiency virus 1, UniProt Q72547)
Experiment: Inhibitory concentration required to inhibit recombinant HIV-1 reverse transcriptase
pIC50: −log10 of the molar value.
Parameter Measured: pIC50

Solved entries:
The reported value for `CCCCOC(=O)CN(CCCn1c(=O)c(C)cn([C@@H]2O[C@H](CO[Si](C)(C)C(C)(C)C)[C@@]3(OS(=O)(=O)C=C3N)[C@H]2O[Si](C)(C)C(C)(C)C)c1=O)CC(=O)OCCCC` in terms of pIC50 is < 3.30

Kindly note the recorded pIC50 for `Cc1cn([C@@H]2O[C@H](CO[Si](C)(C)C(C)(C)C)[C@@]3(OS(=O)(=O)C=C3N)[C@H]2O[Si](C)(C)C(C)(C)C)c(=O)n(Cc2ccccc2)c1=O` , which is < 3.30

Next, consider the following compound.
The compound listed as `Cc1cn([C@@H]2O[C@H](CO[Si](C)(C)C(C)(C)C)[C@@]3(OS(=O)(=O)C=C3N)[C@H]2O[Si](C)(C)C(C)(C)C)c(=O)n(CCCNC(=O)OCc2ccccc2)c1=O` shows pIC50 equal to < 3.30

---

Tested on: Human immunodeficiency virus 2
Experiment: Effective concentration required to inhibit HIV-2 induced cytopathicity in human MT-4 cell line
Assay type: functional, organism-based
Details: Human immunodeficiency virus 2, MT4
pEC50: −log10 of the molar value.
In this section, each of the compounds is paired with its reported pEC50.

Note to self: pEC50 recorded for `Cc1cn([C@@H]2O[C@H](CO[Si](C)(C)C(C)(C)C)[C@@]3(OS(=O)(=O)C=C3N)[C@H]2O[Si](C)(C)C(C)(C)C)c(=O)n(CCC[N+](C)(C)C)c1=O.[I-]` was < 4.60

// recorded pEC50 for `Cc1cn([C@@H]2O[C@H](CO[Si](C)(C)C(C)(C)C)[C@@]3(OS(=O)(=O)C=C3N)[C@H]2O[Si](C)(C)C(C)(C)C)c(=O)n(CCCN(CC(=O)O)CC(=O)O)c1=O` : < 4.30

# pEC50 (compound: `CNC(=O)CCCCCn1c(=O)c(C)cn([C@@H]2O[C@H](CO[Si](C)(C)C(C)(C)C)[C@@]3(OS(=O)(=O)C=C3N)[C@H]2O[Si](C)(C)C(C)(C)C)c1=O` ) is < 3.90

Lab note: measured pEC50 of `Cc1cn([C@@H]2O[C@H](CO[Si](C)(C)C(C)(C)C)[C@@]3(OS(=O)(=O)C=C3N)[C@H]2O[Si](C)(C)C(C)(C)C)c(=O)n(CCCCO)c1=O` was < 5.00

Now examine the next entry.
// sample `Cc1cn([C@@H]2O[C@H](CO[Si](C)(C)C(C)(C)C)[C@@]3(OS(=O)(=O)C=C3N)[C@H]2O[Si](C)(C)C(C)(C)C)c(=O)n(Cc2ccccc2)c1=O` , its pEC50 was < 4.30

---

Each entry below carries its recorded pEC50.
Tested on: Human immunodeficiency virus 1
Assay: Effective concentration required to inhibit HIV-1 induced cytopathicity in human MT-4 cell line
Type: functional, organism-based
Settings: Human immunodeficiency virus 1, MT4
pEC50 here: minus log base 10 of the concentration, concentration in moles per litre.

pEC50 reading for `COC(=O)/C=C/Cn1c(=O)c(C)cn([C@@H]2O[C@H](CO[Si](C)(C)C(C)(C)C)[C@@]3(OS(=O)(=O)C=C3N)[C@H]2O[Si](C)(C)C(C)(C)C)c1=O` : 6.89

Item: `Cc1cn([C@@H]2O[C@H](CO[Si](C)(C)C(C)(C)C)[C@@]3(OS(=O)(=O)C=C3N)[C@H]2O[Si](C)(C)C(C)(C)C)c(=O)n(CCCN(C)C)c1=O` | pEC50: 6.80

For reference, reported pEC50 for `Cc1cn([C@@H]2O[C@H](CO[Si](C)(C)C(C)(C)C)[C@@]3(OS(=O)(=O)C=C3N)[C@H]2O[Si](C)(C)C(C)(C)C)c(=O)n(CCC[N+](C)(C)C)c1=O.[I-]` stands at 5.31

// pEC50 value for `CCOC(=O)CCCCCn1c(=O)c(C)cn([C@@H]2O[C@H](CO[Si](C)(C)C(C)(C)C)[C@@]3(OS(=O)(=O)C=C3N)[C@H]2O[Si](C)(C)C(C)(C)C)c1=O` : 6.57

Measured pEC50 of `Cc1cn([C@@H]2O[C@H](CO[Si](C)(C)C(C)(C)C)[C@@]3(OS(=O)(=O)C=C3N)[C@H]2O[Si](C)(C)C(C)(C)C)c(=O)n(C/C=C/CO)c1=O` : 7.15

Lab note: measured pEC50 of `Cc1cn([C@@H]2O[C@H](CO[Si](C)(C)C(C)(C)C)[C@@]3(OS(=O)(=O)C=C3N)[C@H]2O[Si](C)(C)C(C)(C)C)c(=O)n(CCc2cccc3cc[nH]c23)c1=O` was 6.02

Please fill in: pEC50 reported for `Cc1cn([C@@H]2O[C@H](CO[Si](C)(C)C(C)(C)C)[C@@]3(OS(=O)(=O)C=C3N)[C@H]2O[Si](C)(C)C(C)(C)C)c(=O)n(CC2CC2)c1=O` = 6.70

Entry under test: `Cc1cn([C@@H]2O[C@H](CO[Si](C)(C)C(C)(C)C)[C@@]3(OS(=O)(=O)C=C3N)[C@H]2O[Si](C)(C)C(C)(C)C)c(=O)n(CCBr)c1=O` . Its pEC50 was 6.77

Sure, the documented pEC50 for `COC(=O)CCCCn1c(=O)c(C)cn([C@@H]2O[C@H](CO[Si](C)(C)C(C)(C)C)[C@@]3(OS(=O)(=O)C=C3N)[C@H]2O[Si](C)(C)C(C)(C)C)c1=O` is 6.70

The molecule identified as `Cc1cn([C@@H]2O[C@H](CO[Si](C)(C)C(C)(C)C)[C@@]3(OS(=O)(=O)C=C3N)[C@H]2O[Si](C)(C)C(C)(C)C)c(=O)n(CCCNC(=O)OCc2ccccc2)c1=O` registered its pEC50 at 6.77

Others:
Reported pEC50 for `COCCn1c(=O)c(C)cn([C@@H]2O[C@H](CO[Si](C)(C)C(C)(C)C)[C@@]3(OS(=O)(=O)C=C3N)[C@H]2O[Si](C)(C)C(C)(C)C)c1=O` was 6.80
